relative viability values, listed per item
System: RERF-LC-KJ
ASSAY INFO: relative viability (nuclei count vs DMSO), 5 days (fraction); higher = more cells survive
EXPERIMENTAL PARAMETERS: first compound 0.4 µM

>>> result("O=C(O)c1ccc(-c2c[nH]c3ncc(-c4ccccc4)cc23)cc1C1CCCC1 + CC(=O)c1c(C)c2cnc(Nc3ccc(N4CCNCC4)cn3)nc2n(C2CCCC2)c1=O [Palbociclib] (partner 0.5 µM)")
0.97
>>> result("O=C(O)c1ccc(-c2c[nH]c3ncc(-c4ccccc4)cc23)cc1C1CCCC1 + O=C(c1cc(Cc2n[nH]c(=O)c3ccccc23)ccc1F)N1CCN(C(=O)C2CC2)CC1 [Olaparib] (partner 8 µM)")
0.786
>>> result("O=C(O)c1ccc(-c2c[nH]c3ncc(-c4ccccc4)cc23)cc1C1CCCC1 + CS(=O)(=O)N1CCN(Cc2cc3nc(-c4cccc5[nH]ncc45)nc(N4CCOCC4)c3s2)CC1 [Pictilisib] (partner 1 µM)")
0.503

Now take the following compound into account.
Query: Recorded relative viability for O=C(O)c1ccc(-c2c[nH]c3ncc(-c4ccccc4)cc23)cc1C1CCCC1 + CCNC(=O)c1noc(-c2cc(C(C)C)c(O)cc2O)c1-c1ccc(CN2CCOCC2)cc1 [Luminespib] (partner 0.01 µM) , please?
Response: 1.1

---

Tested on: NCI-H2085
ASSAY INFO: relative viability (nuclei count vs DMSO), 5 days (fraction); higher = more cells survive
EXPERIMENTAL PARAMETERS: first compound 1.265 µM
# relative viability listing for each entry below
Number only, please.

>>> numeric_result("O=C(O)c1ccc(-c2c[nH]c3ncc(-c4ccccc4)cc23)cc1C1CCCC1 + CS(=O)(=O)CCNCc1ccc(-c2ccc3ncnc(Nc4ccc(OCc5cccc(F)c5)c(Cl)c4)c3c2)o1 [Lapatinib] (partner 2 µM)")
0.508
>>> numeric_result("O=C(O)c1ccc(-c2c[nH]c3ncc(-c4ccccc4)cc23)cc1C1CCCC1 + CC(=O)c1c(C)c2cnc(Nc3ccc(N4CCNCC4)cn3)nc2n(C2CCCC2)c1=O [Palbociclib] (partner 0.5 µM)")
0.349

Kindly consider the entry below.
Query: Param item = O=C(O)c1ccc(-c2c[nH]c3ncc(-c4ccccc4)cc23)cc1C1CCCC1 + C[C@@H](Oc1cc(-c2cnn(C3CCNCC3)c2)cnc1N)c1c(Cl)ccc(F)c1Cl [Crizotinib] (partner 1 µM) ; retrieve measured relative viability.
Response: 0.696

---

Tested on: LCLC-97TM1
ASSAY INFO: relative viability (nuclei count vs DMSO), 5 days (fraction); higher = more cells survive
EXPERIMENTAL PARAMETERS: first compound 0.005 µM
Attribute: relative viability
Simply state the number, no unit and no words.

>>> numeric_result("CC1(C)CCC(c2ccc(Cl)cc2)=C(CN2CCN(c3ccc(C(=O)NS(=O)(=O)c4ccc(N[C@H](CCN5CCOCC5)CSc5ccccc5)c(S(=O)(=O)C(F)(F)F)c4)cc3)CC2)C1 [Navitoclax] + Cc1nc(Nc2ncc(C(=O)Nc3c(C)cccc3Cl)s2)cc(N2CCN(CCO)CC2)n1 [Dasatinib] (partner 0.075 µM)")
0.822
>>> numeric_result("CC1(C)CCC(c2ccc(Cl)cc2)=C(CN2CCN(c3ccc(C(=O)NS(=O)(=O)c4ccc(N[C@H](CCN5CCOCC5)CSc5ccccc5)c(S(=O)(=O)C(F)(F)F)c4)cc3)CC2)C1 [Navitoclax] + CC(C)C[C@H](NC(=O)[C@H](Cc1ccccc1)NC(=O)c1cnccn1)B(O)O [Bortezomib] (partner 0.002 µM)")
0.696
>>> numeric_result("CC1(C)CCC(c2ccc(Cl)cc2)=C(CN2CCN(c3ccc(C(=O)NS(=O)(=O)c4ccc(N[C@H](CCN5CCOCC5)CSc5ccccc5)c(S(=O)(=O)C(F)(F)F)c4)cc3)CC2)C1 [Navitoclax] + Cc1cc(Nc2cc(N3CCN(C)CC3)nc(Sc3ccc(NC(=O)C4CC4)cc3)n2)n[nH]1 [Tozasertib] (partner 0.1 µM)")
0.238
>>> numeric_result("CC1(C)CCC(c2ccc(Cl)cc2)=C(CN2CCN(c3ccc(C(=O)NS(=O)(=O)c4ccc(N[C@H](CCN5CCOCC5)CSc5ccccc5)c(S(=O)(=O)C(F)(F)F)c4)cc3)CC2)C1 [Navitoclax] + CS(=O)(=O)CCNCc1ccc(-c2ccc3ncnc(Nc4ccc(OCc5cccc(F)c5)c(Cl)c4)c3c2)o1 [Lapatinib] (partner 2 µM)")
0.884
>>> numeric_result("CC1(C)CCC(c2ccc(Cl)cc2)=C(CN2CCN(c3ccc(C(=O)NS(=O)(=O)c4ccc(N[C@H](CCN5CCOCC5)CSc5ccccc5)c(S(=O)(=O)C(F)(F)F)c4)cc3)CC2)C1 [Navitoclax] + Nc1nc2[nH]cc(CCc3ccc(C(=O)N[C@@H](CCC(=O)O)C(=O)O)cc3)c2c(=O)[nH]1 [Pemetrexed] (partner 0.2 µM)")
0.182

Query: What measured relative viability goes with CC1(C)CCC(c2ccc(Cl)cc2)=C(CN2CCN(c3ccc(C(=O)NS(=O)(=O)c4ccc(N[C@H](CCN5CCOCC5)CSc5ccccc5)c(S(=O)(=O)C(F)(F)F)c4)cc3)CC2)C1 [Navitoclax] + CC(=O)c1c(C)c2cnc(Nc3ccc(N4CCNCC4)cn3)nc2n(C2CCCC2)c1=O [Palbociclib] (partner 0.5 µM) ?
Response: 0.239

Query: // repeat for CC1(C)CCC(c2ccc(Cl)cc2)=C(CN2CCN(c3ccc(C(=O)NS(=O)(=O)c4ccc(N[C@H](CCN5CCOCC5)CSc5ccccc5)c(S(=O)(=O)C(F)(F)F)c4)cc3)CC2)C1 [Navitoclax] + N=C(N)NC(=N)NCCc1ccccc1 [Phenformin] (partner 250 µM) and report
Response: 0.447

Query: Proceed to CC1(C)CCC(c2ccc(Cl)cc2)=C(CN2CCN(c3ccc(C(=O)NS(=O)(=O)c4ccc(N[C@H](CCN5CCOCC5)CSc5ccccc5)c(S(=O)(=O)C(F)(F)F)c4)cc3)CC2)C1 [Navitoclax] + CS(=O)(=O)N1CCN(Cc2cc3nc(-c4cccc5[nH]ncc45)nc(N4CCOCC4)c3s2)CC1 [Pictilisib] (partner 1 µM)
Response: 0.255
